# TEST_SYSTEM: Protein S100-B (Homo sapiens, UniProt P04271)
# Sequence (P04271 whole entry): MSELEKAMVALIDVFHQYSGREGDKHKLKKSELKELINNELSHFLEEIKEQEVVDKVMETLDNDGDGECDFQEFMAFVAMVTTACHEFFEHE
# TEST_PROTOCOL: Inhibition of human S100B/human TAMRA-p53(367-388) interaction by fluorescence polarization assay
As shown below, each of these compounds has a reported IC50 value.
OBSERVABLE: IC50

| STRUCTURE_SMILES_STRING | VAL |
| --- | --- |
| N=C(N)c1ccc(OCCCCCOc2ccc(C(=N)N)cc2)cc1 | > 100 µM |
| COc1ccc(/C=N/c2ccc(O)cc2)cc1 | 36.3 µM |
| Nc1ccc(N2CCCCC2)cc1N1CCCCC1 | 2 µM |
| CCN(CC)c1ccc(N)c(C)c1 | 8.4 µM |
| Nc1cc(N2CCCCC2)ccc1N1CCCCC1 | 31.5 µM |
